System: MV-4-11
Experiment: Long term proliferation assay (Table 3A), MV-4-11
Format: cell-based
Conditions: Homo sapiens, MV4-11; MV-4-11, Day 4; read-out: MV-4-11 Day 4 IC50
Below, each entry is listed alongside its reported IC50.
Give the number; nM is assumed, so skip it.

[
  {
    "STRUCTURE_SMILES": "O=C(Nc1ccc(-c2cc3c(N4CCOCC4)ncnc3[nH]2)cc1)Nc1cc(-c2cccnc2)no1",
    "MEASURED_ENDPOINT": "IC50",
    "RESULT_UNIT": "nM",
    "DATA_VALUE": 174
  }
]

input: Give reported IC50 value for CC(C)c1cc(-c2cc3c(N4CCOCC4)ncnc3[nH]2)ccc1NC(=O)Nc1cc(-c2cccnc2)no1
output: 891

input: Give the reported IC50 for this molecule. Cn1nc(-c2cccnc2)cc1CC(=O)Nc1ccc(-c2cc3c(N4CCOCC4)ncnc3[nH]2)cc1
output: 280
